Settings: 293.15 K, Pendant drop shape
parameter_measured: surface tension liquid-gas (mN/m)
API: value field is a number in mN/m; no unit string.

Entry under review: BrCBr [dibromomethane] . Reported surface tension liquid-gas?
38.5

Entry under review: BrCCCCBr [1,4-dibromobutane] . Reported surface tension liquid-gas?
39.91

Entry under review: ClCCCCCCCl [1,6-dichlorohexane] . Reported surface tension liquid-gas?
35

Entry under review: ClCCCCCl [1,4-dichlorobutane] . Reported surface tension liquid-gas?
33.73

Entry under review: BrCCCBr [1,3-dibromopropane] . Reported surface tension liquid-gas?
39.66

Entry under review: ClCCCCCCl [1,5-dichloropentane] . Reported surface tension liquid-gas?
35.02

Entry under review: BrCCCCCBr [1,5-dibromopentane] . Reported surface tension liquid-gas?
39.37

Entry under review: CCCCCCO [hexan-1-ol] . Reported surface tension liquid-gas?
26.06

Entry under review: ClCCCCl [1,3-dichloropropane] . Reported surface tension liquid-gas?
31.22

Entry under review: ClCCCl [1,2-dichloroethane] . Reported surface tension liquid-gas?
28

Entry under review: CCCCCO [pentan-1-ol] . Reported surface tension liquid-gas?
25.17

Entry under review: BrCCBr [1,2-dibromoethane] . Reported surface tension liquid-gas?
38.81

Entry under review: O [water] . Reported surface tension liquid-gas?
72.84

Entry under review: BrCCCCCCBr [1,6-dibromohexane] . Reported surface tension liquid-gas?
38.92

====

Settings: 303.15 K, Pendant drop shape
// 0.0 strictly below 30 mN/m in surface tension liquid-gas; 1.0 otherwise

Quick check, surface tension liquid-gas >= 30 mN/m? BrCCCBr [1,3-dibromopropane]
1.0

Quick check, surface tension liquid-gas >= 30 mN/m? BrCCBr [1,2-dibromoethane]
1.0

Quick check, surface tension liquid-gas >= 30 mN/m? ClCCCl [1,2-dichloroethane]
0.0

Quick check, surface tension liquid-gas >= 30 mN/m? ClCCCCCl [1,4-dichlorobutane]
1.0

Quick check, surface tension liquid-gas >= 30 mN/m? BrCCCCCBr [1,5-dibromopentane]
1.0

Quick check, surface tension liquid-gas >= 30 mN/m? ClCCCCCCCl [1,6-dichlorohexane]
1.0

Quick check, surface tension liquid-gas >= 30 mN/m? BrCCCCBr [1,4-dibromobutane]
1.0

Quick check, surface tension liquid-gas >= 30 mN/m? CCCCCO [pentan-1-ol]
0.0

Quick check, surface tension liquid-gas >= 30 mN/m? ClCCCCCCl [1,5-dichloropentane]
1.0

Quick check, surface tension liquid-gas >= 30 mN/m? BrCBr [dibromomethane]
1.0

Quick check, surface tension liquid-gas >= 30 mN/m? CCCCCCO [hexan-1-ol]
0.0

Quick check, surface tension liquid-gas >= 30 mN/m? BrCCCCCCBr [1,6-dibromohexane]
1.0

====

Details: 308.15 K, Pendant drop shape
Would you kindly list surface tension liquid-gas for each of these molecules?
API: value field is a number in mN/m; no unit string.

Entry under review: BrCCCCCCBr . Reported surface tension liquid-gas?
37.21

Entry under review: CCCCCCO . Reported surface tension liquid-gas?
24.9

Entry under review: ClCCCCl . Reported surface tension liquid-gas?
29.36

Entry under review: BrCCCCBr . Reported surface tension liquid-gas?
38.29
